tested on: Plasmodium falciparum (chloroquine sensitive 3D7 strain); assay: microbe, parasite or virus in culture; format: cell-based; conditions: Plasmodium falciparum, 3D7, 72 h, read-out: Biological activity CE50 Antiplasmodial
pEC50: −log10 of the molar value.
measurement type: pEC50

>>> df
                               input_smiles  quantitative_readout
0  C=C(C)[C@H]1Cc2c(ccc3c2O[C@@H]2COc4cc(OC)c(OC)cc4[C@@H]2C3=O)O1                  4.72

###

assay: in vitro; conditions: human
measurement type: CC50 at 2 h

In [3]: df
Out[3]:
                                   compound    result
0  C=C(C)[C@H]1Cc2c(ccc3c2O[C@@H]2COc4cc(OC)c(OC)cc4[C@@H]2C3=O)O1 [Compound 1, rotenone]  > 508 µM

###

Test: in vitro
Conditions: mouse
Description: U937 cells (CRL-1593^TM) were isolated from human histiocytic lymphoma; Vero cells (CCL-81^TM) were derived from the kidney of the African green monkey, Cercopithecus aethiops; HepG2 (HB-8065^TM) cells were derived from human liver tissue, and CAD-R1 cells, a subclone, were derived from mouse neuronal cells. […] The percentage of viability (%V) was calculated using Equation 1, where the optical density (OD) of unexposed cells (negative control) corresponds to 100% of viability. […]
# CC50 per record follows
measurement type: CC50

molecule	measurement type	result
COc1cccc2c1C(=O)c1c(O)c3c(c(O)c1C2=O)C[C@@](O)(C(=O)CO)C[C@@H]3O[C@H]1C[C@H](N)[C@H](O)[C@H](C)O1 [Doxorubicin, reference compound]	CC50	2.6 µM
C=C(C)[C@H]1Cc2c(ccc3c2O[C@@H]2COc4cc(OC)c(OC)cc4[C@@H]2C3=O)O1	CC50	10.2 µM
COc1cc2c(cc1OC)C1Cc3ccc4c(c3O[C@@H]1CO2)C[C@H](C(C)C)O4 (stereo partly drawn)	CC50	1.67 µM
COc1cc2c(cc1OC)[C@@H]1C(=O)c3ccc4c(c3O[C@@H]1CO2)C[C@H](C1(C)CO1)O4 (stereo partly drawn)	CC50	29 µM
C[C@@H]1[C@H](O)[C@@H](C)/C=C/C=C/C=C/C=C/C=C/C=C/C=C/[C@H](O[C@@H]2O[C@H](C)[C@@H](O)[C@H](N)[C@@H]2O)C[C@@H]2O[C@](O)(C[C@@H](O)C[C@@H](O)[C@H](O)CC[C@@H](O)C[C@@H](O)CC(=O)O[C@H]1C)C[C@H](O)[C@H]2C(=O)O [Amphotericin B, reference compound]	CC50	54.5 µM
C=C(C)[C@H]1Cc2c(ccc3c2O[C@@H]2COc4cc(OC)c(OC)cc4[C@@H]2C3O)O1 (stereo partly drawn)	CC50	17 µM
